# TEST SUMMARY: Caspase-3/7 induction in HepG2 cells by small molecules, qHTS cell viability counter screen (AID 1346981); note: nearly all actives have a fitted effect of over 30% in size
# CONDITIONS USED: CellTiter-Fluor fluorescence, 17 h; series mostly up to 92.4 µM
Inconclusive results are not listed. Calls of active or inactive are those of the source. Calls come from the whole dose curve; as a rule, active = well fitted cell-killing curve with a large enough effect in the repeat runs; inconclusive = weak or mixed curves, or effect the other way; inactive = flat fitted curve, though single readings scatter.
Possible outcomes: 1 = active, 0 = inactive

> print(dat)
                            compound.string  label.value
1                        CCCCCCc1ccc(O)cc1O            0
2                     CC12CCC(CC1)C(C)(C)O2            0
3                   Nc1c2c(nc3ccccc13)CCCC2            0
4                 CNNCc1ccc(C(=O)NC(C)C)cc1            0
5  CCCCCCCC(=O)OCC(COC(=O)CCCCCCC)OC(=O)CCCCCCC            0
6  CN(N=O)C(=O)N[C@@H]1[C@@H](O)[C@H](O)[C@@H](CO)O[C@@H]1O            0
7        O=C(Nc1ncc([N+](=O)[O-])s1)c1cccs1            1

====

# TEST SUMMARY: qHTS assay to test for compound auto fluorescence at 590 nm (red) in HEK293 cells (AID 720679)
# CONDITIONS USED: red autofluorescence 540/590 nm; series mostly up to 91.3 µM
# Description: National Center for Advancing Translational Sciences [NCATS] NIH Chemical Genomics Center [NCGC] U.S. Environmental Protection Agency [EPA] National Institutes of Environmental Health Sciences [NIEHS] National Toxicology Program [NTP] U.S. Food and Drug Administration [FDA] Compound auto fluorescence often interferes with screening of the compound library against various biological targets and signaling pathways. Some of these compounds may have fluorophoric properties. […]
Active and inactive are the calls of the source. The call rests on the fitted dose curve; in most records, active means well fitted curve in the direction sought with a large enough effect in the repeat runs; inconclusive means weak or mixed curves; inactive means flat fitted curve, though single readings scatter.
ASSAY ENDPOINT: outcome

> print(dat)
                                   compound  assay.endpoint    result
1   C1=CC2C3C=CC(C3)C2C1 (stereo not given)         outcome  inactive
2                CS(=O)(=O)OCCCCOS(C)(=O)=O         outcome  inactive
3  Nc1c(N=Nc2ccc(-c3ccc(N=Nc4cc(S(=O)(=O)O)c5ccccc5c4N)cc3)cc2)cc(S(=O)(=O)O)c2ccccc12         outcome  inactive
4  CN1[C@@H]2CC(OC(=O)[C@H](CO)c3ccccc3)C[C@H]1[C@@H]1O[C@@H]12 (stereo not given in full)         outcome  inactive
5  NC(=O)n1c(O)c(C(=O)c2cccs2)c2cc(Cl)ccc21         outcome  inactive

====

# TEST SUMMARY: qHTS assay to identify small molecule agonists of the farnesoid-X-receptor (FXR) signaling pathway - cell viability counter screen (AID 743218); note: nearly all actives have a fitted effect of over 45% in size
# CONDITIONS USED: FXR-bla HEK293T viability, CellTiter-Glo luminescence, 16 h; series mostly up to 62.6 µM
Records with an inconclusive call do not appear. Active and inactive are the calls of the source. Calls come from the whole dose curve; as a rule, active = well fitted cell-killing curve with a large enough effect in the repeat runs; inconclusive = weak or mixed curves, or effect the other way; inactive = no such curve, though single readings can be large or run the other way.
Classes used: Yes for active, No for inactive

> print(dat)
                            compound.string  label.value
1         Nc1ccc2c(c1)CN1C(=O)c3ccccc3C1=N2           No
2                                 NC1CCCCC1           No
3  C=C1CC[C@H](O)C/C1=C\C=C1/CCC[C@]2(C)[C@@H]([C@H](C)CCCC(C)C)CC[C@@H]12          Yes
